Target: EP300 (P300(1048-1664)) (Homo sapiens)
Construct: P300(1048-1664)
Sequence (Q09472 1048-1664): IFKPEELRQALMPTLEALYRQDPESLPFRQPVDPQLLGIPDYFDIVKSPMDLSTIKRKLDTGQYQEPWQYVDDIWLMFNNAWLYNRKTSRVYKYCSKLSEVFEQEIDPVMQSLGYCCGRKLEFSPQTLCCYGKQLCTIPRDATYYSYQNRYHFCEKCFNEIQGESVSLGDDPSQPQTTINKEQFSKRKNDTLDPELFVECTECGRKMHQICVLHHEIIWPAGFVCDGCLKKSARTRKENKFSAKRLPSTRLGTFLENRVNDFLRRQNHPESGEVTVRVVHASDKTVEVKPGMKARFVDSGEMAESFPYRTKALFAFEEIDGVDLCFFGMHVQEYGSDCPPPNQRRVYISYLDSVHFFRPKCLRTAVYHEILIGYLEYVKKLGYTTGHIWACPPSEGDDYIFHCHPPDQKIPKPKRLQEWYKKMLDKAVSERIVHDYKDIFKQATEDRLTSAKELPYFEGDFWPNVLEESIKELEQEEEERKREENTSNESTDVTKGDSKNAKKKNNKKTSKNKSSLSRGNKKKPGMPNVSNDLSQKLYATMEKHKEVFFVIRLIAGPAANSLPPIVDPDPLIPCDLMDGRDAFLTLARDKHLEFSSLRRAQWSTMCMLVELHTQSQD
Assay: Biochemical assay for EP300, SAMDI
Conditions: EP300, SAMDI; read-out: EP300 Biochemistry IC50
Simple rule here: IC50 less than 2000 nM is Satisfied, otherwise Not satisfied.

# compound, label class
data = [
    ("CCn1ncc(CN(C)C(=O)c2nc(-c3ccc(OCCCO)cc3C)nc3ccc(Cl)cc23)c1C [Compound 53]", "Satisfied"),
    ("CCN(Cc1cnn(CC)c1C)C(=O)c1cc(-c2ccc(NCCNC)c(C)n2)nc2ccc(Cl)cc12 [Compound 456]", "Satisfied"),
    ("CCn1ncc(CN(C)C(=O)c2nc(-c3cc(C(=O)NC)nn3C)nc3ccc(P(C)(C)=O)cc23)c1C [Compound 393]", "Not satisfied"),
    ("CCn1ncc(CN(C)C(=O)c2cc(-c3cnc(CN(C)C)[nH]3)nc3ccc(Cl)cc23)c1C [Compound 146]", "Not satisfied"),
    ("CCn1ncc(CN(C)C(=O)c2cc(-c3ccnc(N)c3)nc3ccc(Cl)cc23)c1C [Compound 94]", "Satisfied"),
    ("CCn1ncc(CN(C)C(=O)c2nc(-c3ccc(OCCN4CCCC4)c(Cl)c3)nc3ccc(Cl)cc23)c1C [Compound 54]", "Satisfied"),
]

====

System: H3K18Ac in HB-CLS-2 cells
Experiment: H3K18AC in-cell western (ICW) assay
Format: cell-based
Details: H3K18Ac in-cell western; read-out: CREBBP ICW IC50
Returns the class for an entry based on its IC50. Class ranges: zone 1 (below 200 nM), zone 2 (200 nM to below 2000 nM), zone 3 (2000 nM or more)

# molecule, label class
records = [
    ("CCn1ncc(CN(C)C(=O)c2nc(-c3ccc(C(=O)NC)cc3)nc3ccc(Cl)cc23)c1C", "zone 3"),
    ("CCn1ncc(CN(C)C(=O)c2nc(-c3cc(C)c4n[nH]cc4c3)nc3ccc(Cl)cc23)c1C", "zone 2"),
    ("CCn1ncc(CN(C)C(=O)c2nc(-c3cnn(CCCNC(=O)OC(C)(C)C)c3)nc3ccc(Cl)cc23)c1C", "zone 3"),
    ("CCn1ncc(C(C)N(C)C(=O)c2cc(-c3ccc(NCCNC)c(C)n3)nc3ccc(Cl)cc23)c1C (centres unmarked)", "zone 1"),
    ("CCn1ncc(CN(C)C(=O)c2nc(-c3cc4c(N)nn(CCNC)c4cc3C)nc3ccc(Cl)cc23)c1C", "zone 2"),
    ("CCn1ncc(CN(C)C(=O)c2nc(-c3cccc(Cl)c3)nc3cc(N4CCOCC4)ccc23)c1C", "zone 3"),
    ("CCn1ncc(CN(C)C(=O)c2nc(-c3ccc(OCCCN4CCCCC4)c(C)c3)nc3ccc(Cl)cc23)c1C", "zone 2"),
    ("CCn1ncc(CN(C)C(=O)c2nc(-c3cccc(N)n3)nc3ccc(Cl)cc23)c1C", "zone 3"),
    ("CCn1ncc(CN(C)C(=O)c2cc(-c3ccc(NCCNC)cn3)nc3ccc(Cl)cc23)c1C", "zone 2"),
    ("CCn1ncc(CN(C)C(=O)c2nc(-c3cc(N)c4cn[nH]c4c3)nc3ccc(COC)cc23)c1C", "zone 1"),
    ("CCn1ncc(CN(C)C(=O)c2nc(-c3ccc(CN4CCNCC4)c(OC)c3)nc3ccc(Cl)cc23)c1C", "zone 3"),
    ("CCn1ncc(CN(C)C(=O)c2nc(-c3ccc(NCCNC)c(C)n3)nc3ccc(Cl)cc23)c1C", "zone 2"),
    ("CCn1ncc(CN(C)C(=O)c2nc(-c3cccc(Cl)c3)nc3ccc(Cl)cc23)c1C", "zone 2"),
    ("CCn1ncc(CN(C)C(=O)c2cc(-c3ccccc3Cl)nc3cc(Cl)c(Cl)cc23)c1C", "zone 2"),
    ("CCn1ncc(CN(C)C(=O)c2nc(N3CCc4[nH]c(C)nc4C3)nc3ccc(Cl)cc23)c1C", "zone 3"),
    ("CCn1ncc(CN(C)C(=O)c2nc(-c3ccc(OCCCNC)c(C)c3)nc3ccc(Cl)cc23)c1C [Compound 36]", "zone 2"),
    ("CCn1ncc(CN(C)C(=O)c2nc(-c3cc(C)cc(NC4CCNC4)c3)nc3ccc(COC)cc23)c1C (centres unmarked)", "zone 1"),
    ("CCc1ncc(CN(C)C(=O)c2cc(-c3ccc(NC4CCOCC4)c(C)n3)nc3ccc(Cl)cc23)n1C", "zone 1"),
    ("CCc1ncc(CN(C)C(=O)c2nc(-c3cc(N)c4c[nH]nc4c3)nc3ccc(Cl)cc23)n1C", "zone 1"),
    ("CCn1ncc(CN(C)C(=O)c2nc(-c3ccc(OCCCNC)cc3)nc3ccc(Cl)cc23)c1C", "zone 3"),
    ("CCn1ncc(CN(C)C(=O)c2nc(-c3cc(C)nc(NCCN(C)C)c3)nc3ccc(Cl)cc23)c1C [Compound 470]", "zone 1"),
    ("CNCCNc1ccc(-c2cc(C(=O)N(C)Cc3cnc(C(C)C)n3C)c3cc(Cl)ccc3n2)nc1C", "zone 1"),
]
